B1: HHH_rd1_0493 (parent)
chain: RDEDEKEKIKEALKRGNEDKAKEIAKRANVSPEEYERLRKEAE

Variants of: B1
ASSAY: folding stability dG (cDNA display proteolysis); higher = more stable
CONDITION_DETAILS: PBS, room temperature
folding stability dG values, listed per item
The reply should contain only the number, in kcal/mol.

Example results:
D2F; 3.22
N17M; 2.94
E5A; 3.7
E36F; 1.6
Y35A; 0.298
K40M; 3.2
K22H; 2.46
K6D; 1.85

Q: Quick one: folding stability dG of `A21I` ?
A: 0.511

Q: Can you handle `S31D` next?
A: 2.6
